Value source: the supplement of paper PMC10567573

B1: TNNI2 (parent)
chain: DWRKNIEEKSGMEGRKKMFESES

Variants of: B1
Test Name: protein stability index of a GFP-peptide fusion (GPS, HEK-293T) (PSI 1-6); higher = more stable;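 note: lentivirally expressed fusions sorted by FACS into six bins by GFP to DsRed ratio, PSI derived from sequencing read proportions per bin multiplied by bin number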
Condition: c terminus: native
Please respond with reported protein stability index for every item in the list.
Give bare numbers.

Examples from the recorded data:
Fill blank: measured protein stability index of the variant E13R is ____. 2.72

Fill blank: measured protein stability index of the variant G11V is ____. 2

Give one value of protein stability index per listed variant.
1. M12K
2. I6M
3. S21A
4. D1A
5. E8C
6. S23H

[2.72, 2.52, 1.5, 2.91, 1.63, 2.87]
